- Target or system: Delta-type opioid receptor (Homo sapiens)
- Run description: Agonist activity at delta opioid receptor (unknown origin) expressed in HEK293-A cells assessed as inhibition of forskolin-stimulated cAMP accumulation incubated for 30 mins by competition PKA binding assay relative to control
- Assay type: functional, cell-based
- Experimental context: filed as agonist

Molecular string	Target or system	Emax
N=C(N)NCCC[C@H](NC(=O)[C@H](CCC(N)=O)NC(=O)[C@@H]1CCCN1C(=O)[C@H]1CSSC[C@H](NC(=O)[C@@H](N)Cc2ccc(O)cc2)C(=O)NCC(=O)N[C@@H](Cc2ccccc2)C(=O)N1)C(=O)N[C@@H](Cc1ccccc1)C(N)=O	Delta-type opioid receptor (Homo sapiens)	60.3%
N=C(N)NCCC[C@H](NC(=O)[C@H](CCC(N)=O)NC(=O)[C@@H]1CCCN1C(=O)[C@H]1CSSC[C@@H](NC(=O)[C@@H](N)Cc2ccc(O)cc2)C(=O)NCC(=O)N[C@@H](Cc2ccccc2)C(=O)N1)C(=O)N[C@@H](Cc1ccccc1)C(N)=O	Delta-type opioid receptor (Homo sapiens)	63.6%
N=C(N)NCCC[C@H](NC(=O)[C@H](CCC(N)=O)NC(=O)[C@@H]1CCCN1C(=O)[C@@H](CS)NC(=O)[C@H](Cc1ccccc1)NC(=O)CNC(=O)[C@@H](CS)NC(=O)[C@@H](N)Cc1ccc(O)cc1)C(=O)N[C@@H](Cc1ccccc1)C(N)=O	Delta-type opioid receptor (Homo sapiens)	58.3%

---

- Target or system: Delta-type opioid receptor (Homo sapiens, UniProt P41143)
- Sequence (P41143 whole entry): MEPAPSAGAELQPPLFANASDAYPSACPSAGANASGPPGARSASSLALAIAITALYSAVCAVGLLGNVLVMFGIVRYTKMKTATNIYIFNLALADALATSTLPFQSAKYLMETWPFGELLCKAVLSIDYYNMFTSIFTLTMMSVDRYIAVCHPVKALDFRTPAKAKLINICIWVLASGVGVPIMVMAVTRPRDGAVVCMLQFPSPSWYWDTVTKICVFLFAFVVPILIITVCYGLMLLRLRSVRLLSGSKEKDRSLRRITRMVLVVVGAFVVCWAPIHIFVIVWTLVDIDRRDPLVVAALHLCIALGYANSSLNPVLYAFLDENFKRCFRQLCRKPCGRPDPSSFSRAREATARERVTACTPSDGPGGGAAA
- Run description: Agonist activity at delta opioid receptor (unknown origin) expressed in HEK293-A cells assessed as inhibition of forskolin-stimulated cAMP accumulation incubated for 30 mins by competition PKA binding assay
pEC50: −log10 of the molar value.

Molecular string	pEC50
N=C(N)NCCC[C@H](NC(=O)[C@H](CCC(N)=O)NC(=O)[C@@H]1CCCN1C(=O)[C@H](CS)NC(=O)[C@H](Cc1ccccc1)NC(=O)CNC(=O)[C@@H](CS)NC(=O)[C@@H](N)Cc1ccc(O)cc1)C(=O)N[C@@H](Cc1ccccc1)C(N)=O	6.29
N=C(N)NCCC[C@H](NC(=O)[C@H](CCC(N)=O)NC(=O)[C@@H]1CCCN1C(=O)[C@H]1CSSC[C@@H](NC(=O)[C@@H](N)Cc2ccc(O)cc2)C(=O)NCC(=O)N[C@@H](Cc2ccccc2)C(=O)N1)C(=O)N[C@@H](Cc1ccccc1)C(N)=O	6.70
N=C(N)NCCC[C@H](NC(=O)[C@H](CCC(N)=O)NC(=O)[C@@H]1CCCN1C(=O)[C@H](CS)NC(=O)[C@H](Cc1ccccc1)NC(=O)CNC(=O)[C@H](CS)NC(=O)[C@@H](N)Cc1ccc(O)cc1)C(=O)N[C@@H](Cc1ccccc1)C(N)=O	6.66
N=C(N)NCCC[C@H](NC(=O)[C@H](CCC(N)=O)NC(=O)[C@@H]1CCCN1C(=O)[C@@H]1CSSC[C@@H](NC(=O)[C@@H](N)Cc2ccc(O)cc2)C(=O)NCC(=O)N[C@@H](Cc2ccccc2)C(=O)N1)C(=O)N[C@@H](Cc1ccccc1)C(N)=O	6.76
N=C(N)NCCC[C@H](NC(=O)[C@H](CCC(N)=O)NC(=O)[C@@H]1CCCN1C(=O)[C@H]1CSSC[C@H](NC(=O)[C@@H](N)Cc2ccc(O)cc2)C(=O)NCC(=O)N[C@@H](Cc2ccccc2)C(=O)N1)C(=O)N[C@@H](Cc1ccccc1)C(N)=O	6.31
N=C(N)NCCC[C@H](NC(=O)[C@H](CCC(N)=O)NC(=O)[C@@H]1CCCN1C(=O)[C@@H]1CSSC[C@H](NC(=O)[C@@H](N)Cc2ccc(O)cc2)C(=O)NCC(=O)N[C@@H](Cc2ccccc2)C(=O)N1)C(=O)N[C@@H](Cc1ccccc1)C(N)=O	6.79
N=C(N)NCCC[C@H](NC(=O)[C@H](CCC(N)=O)NC(=O)[C@@H]1CCCN1C(=O)[C@@H](CS)NC(=O)[C@H](Cc1ccccc1)NC(=O)CNC(=O)[C@@H](CS)NC(=O)[C@@H](N)Cc1ccc(O)cc1)C(=O)N[C@@H](Cc1ccccc1)C(N)=O	6.66
N=C(N)NCCC[C@H](NC(=O)[C@H](CCC(N)=O)NC(=O)[C@@H]1CCCN1C(=O)[C@@H](CS)NC(=O)[C@H](Cc1ccccc1)NC(=O)CNC(=O)[C@H](CS)NC(=O)[C@@H](N)Cc1ccc(O)cc1)C(=O)N[C@@H](Cc1ccccc1)C(N)=O	6.70

---

- Run description: Half life in 15% mouse brain at 0.01 mM by RP-HPLC analysis
- Type: ADME, tissue-based
Catalogue of half-life at 10 µM readings, one per entry.
Measured property: half-life at 10 µM

Molecular string	Measured property	Observed
N=C(N)NCCC[C@H](NC(=O)[C@H](CCC(N)=O)NC(=O)[C@@H]1CCCN1C(=O)[C@@H]1CSSC[C@H](NC(=O)[C@@H](N)Cc2ccc(O)cc2)C(=O)NCC(=O)N[C@@H](Cc2ccccc2)C(=O)N1)C(=O)N[C@@H](Cc1ccccc1)C(N)=O	half-life at 10 µM	0.967 h
N=C(N)NCCC[C@H](NC(=O)[C@H](CCC(N)=O)NC(=O)[C@@H]1CCCN1C(=O)[C@H]1CSSC[C@@H](NC(=O)[C@@H](N)Cc2ccc(O)cc2)C(=O)NCC(=O)N[C@@H](Cc2ccccc2)C(=O)N1)C(=O)N[C@@H](Cc1ccccc1)C(N)=O	half-life at 10 µM	4.25 h
N=C(N)NCCC[C@H](NC(=O)[C@H](CCC(N)=O)NC(=O)[C@@H]1CCCN1C(=O)[C@@H]1CSSC[C@@H](NC(=O)[C@@H](N)Cc2ccc(O)cc2)C(=O)NCC(=O)N[C@@H](Cc2ccccc2)C(=O)N1)C(=O)N[C@@H](Cc1ccccc1)C(N)=O	half-life at 10 µM	2.88 h
N=C(N)NCCC[C@H](NC(=O)[C@H](CCC(N)=O)NC(=O)[C@@H]1CCCN1C(=O)[C@H]1CSSC[C@H](NC(=O)[C@@H](N)Cc2ccc(O)cc2)C(=O)NCC(=O)N[C@@H](Cc2ccccc2)C(=O)N1)C(=O)N[C@@H](Cc1ccccc1)C(N)=O	half-life at 10 µM	3.82 h

---

- Run description: Half life in 100% mouse plasma at 0.01 mM by RP-HPLC analysis
- Format: ADME, cell-free
Classify: condition met when half-life at 10 µM is strictly less than 30 min; condition not met when half-life at 10 µM is not.

Molecular string	Class name
N=C(N)NCCC[C@H](NC(=O)[C@H](CCC(N)=O)NC(=O)[C@@H]1CCCN1C(=O)[C@@H]1CSSC[C@@H](NC(=O)[C@@H](N)Cc2ccc(O)cc2)C(=O)NCC(=O)N[C@@H](Cc2ccccc2)C(=O)N1)C(=O)N[C@@H](Cc1ccccc1)C(N)=O	condition not met
N=C(N)NCCC[C@H](NC(=O)[C@H](CCC(N)=O)NC(=O)[C@@H]1CCCN1C(=O)[C@H]1CSSC[C@@H](NC(=O)[C@@H](N)Cc2ccc(O)cc2)C(=O)NCC(=O)N[C@@H](Cc2ccccc2)C(=O)N1)C(=O)N[C@@H](Cc1ccccc1)C(N)=O	condition met
N=C(N)NCCC[C@H](NC(=O)[C@H](CCC(N)=O)NC(=O)[C@@H]1CCCN1C(=O)[C@H](CS)NC(=O)[C@H](Cc1ccccc1)NC(=O)CNC(=O)[C@@H](CS)NC(=O)[C@@H](N)Cc1ccc(O)cc1)C(=O)N[C@@H](Cc1ccccc1)C(N)=O	condition met
N=C(N)NCCC[C@H](NC(=O)[C@H](CCC(N)=O)NC(=O)[C@@H]1CCCN1C(=O)[C@@H](CS)NC(=O)[C@H](Cc1ccccc1)NC(=O)CNC(=O)[C@H](CS)NC(=O)[C@@H](N)Cc1ccc(O)cc1)C(=O)N[C@@H](Cc1ccccc1)C(N)=O	condition not met
N=C(N)NCCC[C@H](NC(=O)[C@H](CCC(N)=O)NC(=O)[C@@H]1CCCN1C(=O)[C@@H]1CSSC[C@H](NC(=O)[C@@H](N)Cc2ccc(O)cc2)C(=O)NCC(=O)N[C@@H](Cc2ccccc2)C(=O)N1)C(=O)N[C@@H](Cc1ccccc1)C(N)=O	condition met
N=C(N)NCCC[C@H](NC(=O)[C@H](CCC(N)=O)NC(=O)[C@@H]1CCCN1C(=O)[C@H]1CSSC[C@H](NC(=O)[C@@H](N)Cc2ccc(O)cc2)C(=O)NCC(=O)N[C@@H](Cc2ccccc2)C(=O)N1)C(=O)N[C@@H](Cc1ccccc1)C(N)=O	condition met

---

- System: Mus musculus
- Run description: Analgesic activity in sc dosed Kunming mouse assessed as time duration during which antinociception lasted by radiant heat tail flick test
- Type: functional
Readings of Time for the listed compounds
Measured property: Time

Molecular string	Measured property	Observed
N=C(N)NCCC[C@H](NC(=O)[C@H](CCC(N)=O)NC(=O)[C@@H]1CCCN1C(=O)[C@H](CS)NC(=O)[C@H](Cc1ccccc1)NC(=O)CNC(=O)[C@@H](CS)NC(=O)[C@@H](N)Cc1ccc(O)cc1)C(=O)N[C@@H](Cc1ccccc1)C(N)=O	Time	3 h
N=C(N)NCCC[C@H](NC(=O)[C@H](CCC(N)=O)NC(=O)[C@@H]1CCCN1C(=O)[C@H](CS)NC(=O)[C@H](Cc1ccccc1)NC(=O)CNC(=O)[C@H](CS)NC(=O)[C@@H](N)Cc1ccc(O)cc1)C(=O)N[C@@H](Cc1ccccc1)C(N)=O	Time	1.5 h
N=C(N)NCCC[C@H](NC(=O)[C@H](CCC(N)=O)NC(=O)[C@@H]1CCCN1C(=O)[C@@H]1CSSC[C@@H](NC(=O)[C@@H](N)Cc2ccc(O)cc2)C(=O)NCC(=O)N[C@@H](Cc2ccccc2)C(=O)N1)C(=O)N[C@@H](Cc1ccccc1)C(N)=O	Time	4 h
N=C(N)NCCC[C@H](NC(=O)[C@H](CCC(N)=O)NC(=O)[C@@H]1CCCN1C(=O)[C@H]1CSSC[C@H](NC(=O)[C@@H](N)Cc2ccc(O)cc2)C(=O)NCC(=O)N[C@@H](Cc2ccccc2)C(=O)N1)C(=O)N[C@@H](Cc1ccccc1)C(N)=O	Time	4 h
N=C(N)NCCC[C@H](NC(=O)[C@H](CCC(N)=O)NC(=O)[C@@H]1CCCN1C(=O)[C@@H](CS)NC(=O)[C@H](Cc1ccccc1)NC(=O)CNC(=O)[C@@H](CS)NC(=O)[C@@H](N)Cc1ccc(O)cc1)C(=O)N[C@@H](Cc1ccccc1)C(N)=O	Time	3 h
N=C(N)NCCC[C@H](NC(=O)[C@H](CCC(N)=O)NC(=O)[C@@H]1CCCN1C(=O)[C@@H](CS)NC(=O)[C@H](Cc1ccccc1)NC(=O)CNC(=O)[C@H](CS)NC(=O)[C@@H](N)Cc1ccc(O)cc1)C(=O)N[C@@H](Cc1ccccc1)C(N)=O	Time	3 h
N=C(N)NCCC[C@H](NC(=O)[C@H](CCC(N)=O)NC(=O)[C@@H]1CCCN1C(=O)[C@H]1CSSC[C@@H](NC(=O)[C@@H](N)Cc2ccc(O)cc2)C(=O)NCC(=O)N[C@@H](Cc2ccccc2)C(=O)N1)C(=O)N[C@@H](Cc1ccccc1)C(N)=O	Time	4 h
N=C(N)NCCC[C@H](NC(=O)[C@H](CCC(N)=O)NC(=O)[C@@H]1CCCN1C(=O)[C@@H]1CSSC[C@H](NC(=O)[C@@H](N)Cc2ccc(O)cc2)C(=O)NCC(=O)N[C@@H](Cc2ccccc2)C(=O)N1)C(=O)N[C@@H](Cc1ccccc1)C(N)=O	Time	1.5 h
